# Protocol Summary: Solubility at 25 degree C and pH of 10.8
# Format: physicochemical
# Cond: pH 10.8; read-out: S
Non-standard residues stand in square brackets, D forms with d. Residues, ends and D or L forms follow the SMILES beside them. Pip = O=C(O)[C@@H]1CCCCN1; dPip = O=C(O)[C@H]1CCCCN1
Measured Attribute: solubility (µg/mL)
Just the number please, in µg/mL, no unit attached.

Using the record for CC[C@H](C)[C@@H]1NC(=O)[C@@H](Cc2c[nH]c3ccccc23)NC(=O)[C@@H]2CCCN2C(=O)[C@@H](Cc2c[nH]cn2)NC(=O)[C@@H]2CCCCN2C(=O)[C@H]2CCCCN2C1=O (cyclo(I[dPip][Pip][dH]P[dW])) , report its solubility.
110
